assay: Tissue biodistribution in tumor-bearing Balb/c mice; assay type: in vivo; conditions: female, Balb/c, mouse, 4T1luc tumor / blood, iv, 0.185 MBq, total radioactivity; 1 h post injection; read-out: tumor/blood ratio
Non-standard residues stand in square brackets, D forms with d. Residues, ends and D or L forms follow the SMILES beside them. Tyr(3-I) = N[C@@H](Cc1ccc(O)c(I)c1)C(=O)O; Ahx = NCCCCCC(=O)O

| COMPOUND | tissue to tissue ratio at 1 h |
| --- | --- |
| CC(=O)NCCCCCC(=O)N[C@@H](Cc1ccc(O)c(I)c1)C(=O)NCCCCCC(=O)N[C@@H](CC(=O)O)C(=O)N[C@@H](CCC(=O)O)C(=O)N[C@H](C(=O)N[C@@H](CC(=O)O)C(=O)NCC(=O)N[C@@H](CCCCN)C(=O)NCC(=O)N[C@@H](CS)C(N)=O)C(C)C [[^125I]LS370] (Ac-[Ahx][Tyr(3-I)][Ahx]DEVDGKGC-NH2) | 0.6 |
